Assay: Inhibition of NS5B polymerase in HCV genotype 2B infected in HuH7 cells after 40 hrs by Taqman probe based RT-PCR analysis
Kindly state EC50 for each of the entries shown.
The reply should contain only the number, in nM.

Can you look up the measured EC50 of "CNC(=O)c1c(-c2ccc(F)cc2)oc2cc(N(C)S(C)(=O)=O)c(-c3ccc4c(n3)-c3cc5c(F)cccc5n3CCCC4)cc12" for me? 3.8

Can you look up the measured EC50 of "CNC(=O)c1c(-c2ccc(F)cc2)oc2cc(N(C)S(C)(=O)=O)c(-c3cc4n(c(=O)c3)CCn3c-4cc4c(F)cccc43)cc12" for me? 2.2

Can you look up the measured EC50 of "CNC(=O)c1c(-c2ccc(F)cc2)oc2cc(N(C)S(C)(=O)=O)c(-c3ccc4c(n3)-c3cc5c(F)cccc5n3C4)cc12" for me? 3.9

Can you look up the measured EC50 of "CNC(=O)c1c(-c2ccc(F)cc2)oc2cc(N(C)S(C)(=O)=O)c(-c3ccc4ccn5c6cccc(F)c6cc5c4n3)cc12" for me? 3.5

====

Assay: Inhibition of NS5B polymerase S365A mutant in HCV genotype 1A infected in HuH7 cells after 40 hrs by Taqman probe based RT-PCR analysis
Exam item: assign Y to entries whose EC50 is below 6 nM and N to entries at or above 6 nM. Note that a value of exactly 6 nM receives N.

Check if EC50 falls below 6 nM for "CNC(=O)c1c(-c2ccc(F)cc2)oc2cc(N(C)S(C)(=O)=O)c(-c3ccc4c(n3)-c3cc5c(F)cccc5n3C4)cc12" . N

Check if EC50 falls below 6 nM for "CNC(=O)c1c(-c2ccc(F)cc2)oc2cc(N(C)S(C)(=O)=O)c(-c3cc4n(c(=O)c3)CCn3c-4cc4c(F)cccc43)cc12" . N

Check if EC50 falls below 6 nM for "CNC(=O)c1c(-c2ccc(F)cc2)oc2cc(N(C)S(C)(=O)=O)c(-c3ccc4ncn5c6cccc(F)c6cc5c4n3)cc12" . Y

Check if EC50 falls below 6 nM for "CNC(=O)c1c(-c2ccc(F)cc2)oc2cc(N(C)S(C)(=O)=O)c(-c3ccc4c(n3)-c3cc5c(F)cccc5n3CCCC4)cc12" . N

Check if EC50 falls below 6 nM for "CNC(=O)c1c(-c2ccc(F)cc2)oc2cc(N(C)S(C)(=O)=O)c(-c3ccc4c(n3)-c3cc5c(F)cccc5n3CC4)cc12" . N

Check if EC50 falls below 6 nM for "CNC(=O)c1c(-c2ccc(F)cc2)oc2cc(N(C)S(C)(=O)=O)c(-c3ccc4c(n3)-c3cc5c(F)cccc5n3CN4)cc12" . Y

Check if EC50 falls below 6 nM for "CNC(=O)c1c(-c2ccc(F)cc2)oc2cc(N(C)S(C)(=O)=O)c(-c3ccc4ccn5c6cccc(F)c6cc5c4n3)cc12" . Y

Check if EC50 falls below 6 nM for "CNC(=O)c1c(-c2ccc(F)cc2)oc2cc(N(C)S(C)(=O)=O)c(-c3ccc4c(n3)-c3cc5c(F)cccc5n3CCC4)cc12" . N

====

Kindly state EC50 for each of the entries shown.
Experiment: Inhibition of NS5B polymerase E1202G/T1280I/S2197P mutant in HCV genotype 1b infected in human HuH7 replicon cells after 72 hrs in presence of 10% FBS by luciferase-based reporter assay
The reply should contain only the number, in nM.

Can you look up the measured EC50 of CNC(=O)c1c(-c2ccc(F)cc2)oc2cc(N(C)S(C)(=O)=O)c(-c3ccc4ccn5c6cccc(F)c6cc5c4n3)cc12 [US9243002, 82] for me? 5.5

Can you look up the measured EC50 of "CNC(=O)c1c(-c2ccc(F)cc2)oc2cc(N(C)S(C)(=O)=O)c(-c3ccc4c(n3)-c3cc5c(F)cccc5n3CN4)cc12" for me? 5.3

Can you look up the measured EC50 of "CNC(=O)c1c(-c2ccc(F)cc2)oc2cc(N(C)S(C)(=O)=O)c(-c3ccc4ncn5c6cccc(F)c6cc5c4n3)cc12" for me? 3.2

Can you look up the measured EC50 of CNC(=O)c1c(-c2ccc(F)cc2)oc2cc(N(C)S(C)(=O)=O)c(-c3ccc4c(n3)-c3cc5c(F)cccc5n3CC4)cc12 [US9243002, 85] for me? 3.3
